B1: PhoQ; a variant is named by its letters at X, in order, P23837 (parent)
chain: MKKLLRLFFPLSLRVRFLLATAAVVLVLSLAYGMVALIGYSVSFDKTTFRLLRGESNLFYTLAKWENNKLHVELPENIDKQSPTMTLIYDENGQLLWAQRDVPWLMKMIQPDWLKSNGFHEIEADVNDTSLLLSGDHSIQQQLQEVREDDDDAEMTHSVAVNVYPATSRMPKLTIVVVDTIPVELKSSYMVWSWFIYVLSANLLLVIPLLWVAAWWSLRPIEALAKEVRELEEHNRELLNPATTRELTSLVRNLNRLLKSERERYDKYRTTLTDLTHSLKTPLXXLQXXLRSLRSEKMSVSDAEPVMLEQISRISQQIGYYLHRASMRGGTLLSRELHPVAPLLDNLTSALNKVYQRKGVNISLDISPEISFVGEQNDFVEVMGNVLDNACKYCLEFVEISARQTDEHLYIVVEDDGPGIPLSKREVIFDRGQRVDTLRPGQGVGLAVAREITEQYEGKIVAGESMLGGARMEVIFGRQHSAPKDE

Variants of: B1
protocol-notes: enrichment ratio after two sorts for PhoP signalling (ratio (wild type AVST 3.29)); higher = more functional
cond: with PhoP (E. coli)
Whole data set: some 140,000 sequences, median “enrichment ratio after two sorts for PhoP signalling” near 0, cut for the highest 2% near 11. The sample holds the highest values, similar sequences and a random draw of the others, so the mix is not that of the screen.
Attribute: enrichment ratio

>  <variant-identifier>
KFMM

>  <enrichment ratio>
≤ 0.25

$$$$
>  <variant-identifier>
TGDI

>  <enrichment ratio>
≤ 0.25

$$$$
>  <variant-identifier>
SKKQ

>  <enrichment ratio>
≤ 0.25

$$$$
>  <variant-identifier>
FCIG

>  <enrichment ratio>
≤ 0.25

$$$$
>  <variant-identifier>
NHCG

>  <enrichment ratio>
≤ 0.25

$$$$
>  <variant-identifier>
NFSK

>  <enrichment ratio>
≤ 0.25

$$$$
>  <variant-identifier>
FDCG

>  <enrichment ratio>
≤ 0.25

$$$$
>  <variant-identifier>
GYLF

>  <enrichment ratio>
≤ 0.25

$$$$
>  <variant-identifier>
AKMH

>  <enrichment ratio>
12

$$$$
>  <variant-identifier>
AIMH

>  <enrichment ratio>
4.85

$$$$
>  <variant-identifier>
SKAT

>  <enrichment ratio>
5.34

$$$$
>  <variant-identifier>
SKHP

>  <enrichment ratio>
≤ 0.25

$$$$
>  <variant-identifier>
CFGC

>  <enrichment ratio>
≤ 0.25

$$$$
>  <variant-identifier>
AKRK

>  <enrichment ratio>
≤ 0.25

$$$$
>  <variant-identifier>
NYTT

>  <enrichment ratio>
≤ 0.25

$$$$
>  <variant-identifier>
ADCG

>  <enrichment ratio>
1.58

$$$$
>  <variant-identifier>
PICS

>  <enrichment ratio>
≤ 0.25

$$$$
>  <variant-identifier>
SKCE

>  <enrichment ratio>
5.46

$$$$
>  <variant-identifier>
LCWM

>  <enrichment ratio>
≤ 0.25

$$$$
>  <variant-identifier>
TMQR

>  <enrichment ratio>
8.83

$$$$
>  <variant-identifier>
SIMM

>  <enrichment ratio>
1.49

$$$$
>  <variant-identifier>
ACCK

>  <enrichment ratio>
12.8

$$$$
>  <variant-identifier>
NYMC

>  <enrichment ratio>
≤ 0.25

$$$$
>  <variant-identifier>
KCCY

>  <enrichment ratio>
≤ 0.25

$$$$
>  <variant-identifier>
FIAQ

>  <enrichment ratio>
≤ 0.25

$$$$
>  <variant-identifier>
SKCA

>  <enrichment ratio>
11.7

$$$$
>  <variant-identifier>
TEGP

>  <enrichment ratio>
≤ 0.25

$$$$
>  <variant-identifier>
SKPI

>  <enrichment ratio>
≤ 0.25

$$$$
>  <variant-identifier>
MQII

>  <enrichment ratio>
≤ 0.25

$$$$
>  <variant-identifier>
AQGC

>  <enrichment ratio>
12.4

$$$$
>  <variant-identifier>
TMWA

>  <enrichment ratio>
≤ 0.25

$$$$
>  <variant-identifier>
TETH

>  <enrichment ratio>
10.3

$$$$
>  <variant-identifier>
SKKI

>  <enrichment ratio>
≤ 0.25

$$$$
>  <variant-identifier>
AKCG

>  <enrichment ratio>
2.88

$$$$
>  <variant-identifier>
TQMM

>  <enrichment ratio>
57.7

$$$$
>  <variant-identifier>
TEYH

>  <enrichment ratio>
20.6

$$$$
>  <variant-identifier>
TGGC

>  <enrichment ratio>
11.2

$$$$
>  <variant-identifier>
SYMM

>  <enrichment ratio>
0.307

$$$$
>  <variant-identifier>
TDCG

>  <enrichment ratio>
13.4

$$$$
>  <variant-identifier>
MNSV

>  <enrichment ratio>
16.9

$$$$
>  <variant-identifier>
NHCE

>  <enrichment ratio>
≤ 0.25

$$$$
>  <variant-identifier>
MNIV

>  <enrichment ratio>
≤ 0.25

$$$$
>  <variant-identifier>
NQMM

>  <enrichment ratio>
≤ 0.25

$$$$
>  <variant-identifier>
ILCM

>  <enrichment ratio>
≤ 0.25

$$$$
>  <variant-identifier>
LFRM

>  <enrichment ratio>
≤ 0.25

$$$$
>  <variant-identifier>
IMWI

>  <enrichment ratio>
≤ 0.25

$$$$
>  <variant-identifier>
KDCG

>  <enrichment ratio>
≤ 0.25

$$$$
>  <variant-identifier>
DRWN

>  <enrichment ratio>
≤ 0.25

$$$$
>  <variant-identifier>
EGMK

>  <enrichment ratio>
≤ 0.25

$$$$
>  <variant-identifier>
EQLF

>  <enrichment ratio>
≤ 0.25

$$$$
>  <variant-identifier>
FIKM

>  <enrichment ratio>
≤ 0.25

$$$$
>  <variant-identifier>
SLLF

>  <enrichment ratio>
0.885

$$$$
>  <variant-identifier>
YTLF

>  <enrichment ratio>
6.76

$$$$
>  <variant-identifier>
TMTM

>  <enrichment ratio>
17.1

$$$$
>  <variant-identifier>
AIGC

>  <enrichment ratio>
5.62

$$$$
>  <variant-identifier>
VCCY

>  <enrichment ratio>
≤ 0.25

$$$$
>  <variant-identifier>
NMSK

>  <enrichment ratio>
≤ 0.25

$$$$
>  <variant-identifier>
SKCT

>  <enrichment ratio>
14.2

$$$$
>  <variant-identifier>
QMGQ

>  <enrichment ratio>
≤ 0.25

$$$$
>  <variant-identifier>
HKMH

>  <enrichment ratio>
≤ 0.25

$$$$
>  <variant-identifier>
SKCY

>  <enrichment ratio>
16.7

$$$$
>  <variant-identifier>
NQGC

>  <enrichment ratio>
≤ 0.25

$$$$
